- Tested on: KM20L2 colon
- EXPERIMENT DESCRIPTION: NCI tumour cell line growth inhibition, 48 h
Listed next: entries and their corresponding TGI.
ASSAY METRIC: TGI

COMPOUND: CCOC(=O)c1cc(-c2ccc(-c3cc(C(=O)OCC)c(C#N)c(N)c3C#N)cc2)c(C#N)c(N)c1C#N
ASSAY METRIC: TGI
OBSERVED: > 100 µM

COMPOUND: O=C1C2C=CC(n3[nH]c(=O)n(Cc4ccccc4)c3=O)CC2C(=O)N1c1ccc(Br)cc1 (centres undefined)
ASSAY METRIC: TGI
OBSERVED: > 100 µM

COMPOUND: CC(C)c1cccc(C(C)C)c1N1C(=O)C(=O)C(c2nc3ccccc3o2)C(=O)C1=O
ASSAY METRIC: TGI
OBSERVED: > 100 µM

COMPOUND: CCC(=O)OC1CCn2c1nc1c2C(=O)C(C)=C(NC(C)=O)C1=N (centres undefined)
ASSAY METRIC: TGI
OBSERVED: 3.38 µM

COMPOUND: COc1ccc2oc3c(OC)c(OC)c(OC)cc3c(=O)c2c1
ASSAY METRIC: TGI
OBSERVED: > 100 µM

COMPOUND: C=C1C(C)C2C(Cc3ccccc3)NC(=O)C23OC(=O)/C=C\CC(=O)CCC(C)C/C=C/C3C1O (centres undefined)
ASSAY METRIC: TGI
OBSERVED: 15.8 µM

COMPOUND: CCC[CH2][Sn]([CH2]CCC)([S]C#N)[S]C#N
ASSAY METRIC: TGI
OBSERVED: 3.6 µM

COMPOUND: N#CC(C(=O)CCCC(=O)Nc1ccc(Cl)cc1Cl)c1ccccc1 (centres undefined)
ASSAY METRIC: TGI
OBSERVED: > 100 µM

COMPOUND: CCN(CC)CC1CCCCN1CC(=O)N1CC(C)C(=O)Nc2ccccc21 (centres undefined)
ASSAY METRIC: TGI
OBSERVED: > 100 µM

----------
- Test system: OVCAR-8 ovarian
- EXPERIMENT DESCRIPTION: NCI tumour cell line growth inhibition, 48 h

COMPOUND: COc1nc(C#CC2CCCCC2)nc(OC)n1
RELATION SYMBOL: =
TGI, µM: 3.44
//
COMPOUND: CC1=C(SC#N)S(=O)(=O)N(c2ccccc2)C(C)=C1SC#N
RELATION SYMBOL: >
TGI, µM: 100
//
COMPOUND: CCOC(=O)c1cc(-c2ccc(-c3cc(C(=O)OCC)c(C#N)c(N)c3C#N)cc2)c(C#N)c(N)c1C#N
RELATION SYMBOL: >
TGI, µM: 100
//
COMPOUND: OC(NN=C1CCCC1)(C(F)(F)Cl)C(F)(F)Cl
RELATION SYMBOL: >
TGI, µM: 10
//
COMPOUND: Cc1ccc(S(=O)(=O)NC(=O)C2=C3SCCN3C(=O)N(S(=O)(=O)c3ccc(C)cc3)C2c2ccccc2)cc1 (centres undefined)
RELATION SYMBOL: >
TGI, µM: 100
//
COMPOUND: CC(=O)N1CCN(CCNC(=O)n2cc(-c3ccncc3)c(-c3cc(O)cc(Cl)c3)n2)CC1
RELATION SYMBOL: >
TGI, µM: 100
//
COMPOUND: COc1ccccc1NC(=O)C1=C(C)NC(C)=C(C(=O)Nc2ccccc2OC)C1/C=C/c1ccccc1
RELATION SYMBOL: >
TGI, µM: 100
//
COMPOUND: COc1cccc(C2c3cc4c(cc3OC(Nc3ccccc3)C2C)OCO4)c1O (centres undefined)
RELATION SYMBOL: =
TGI, µM: 35.7
//
COMPOUND: Cc1nc(Nc2ccccc2Cl)sc1C(=O)CC(=O)C(N)=O
RELATION SYMBOL: >
TGI, µM: 100
//
COMPOUND: Cc1ccc2nc(NC(=O)C(=O)C(C#N)c3ccc(Cl)cc3)sc2c1 (centres undefined)
RELATION SYMBOL: >
TGI, µM: 50
//
COMPOUND: CC(=O)O[C@H]1CC2C(C3CCC(C(C)CCC(N)=O)[C@]31C)[C@H](OC(C)=O)C[C@@H]1CC3(CC[C@]21C)OOC1(CC[C@]2(C)C4C[C@H](OC(C)=O)[C@]5(C)C(C(C)CCC(N)=O)CCC5C4[C@H](OC(C)=O)C[C@@H]2C1)OO3 (some centres undefined)
RELATION SYMBOL: =
TGI, µM: 3.66
//
COMPOUND: CCN(CC)C(=O)Cn1c2c(c3ccccc31)CCCC2
RELATION SYMBOL: >
TGI, µM: 100
//
COMPOUND: CC(C)(C)OC(=O)c1ccc(NCC2=C(Br)C(=O)C=CC2=O)cc1
RELATION SYMBOL: =
TGI, µM: 39.8
//
COMPOUND: O=C(CN(/C=C/C(=O)C(F)(F)F)c1ccc(Cl)cc1)c1ccc(Cl)c(Cl)c1
RELATION SYMBOL: =
TGI, µM: 28.8
//
COMPOUND: CSc1cnc2ccccc2c1Sc1c[nH]c2ccccc2c1=O
RELATION SYMBOL: =
TGI, µM: 34.4
//
COMPOUND: CCOC1=C(c2ccccc2)N2CCCCC2O1 (centres undefined)
RELATION SYMBOL: >
TGI, µM: 38.5
//
COMPOUND: O=C(NCC(F)(F)F)Nc1cccc(-c2cnc3cc(-c4ccc(F)cc4)ccn23)c1
RELATION SYMBOL: =
TGI, µM: 33.6
//
COMPOUND: COc1ccc(-c2cncn2-c2cc(OC)c(OC)c(OC)c2)cc1
RELATION SYMBOL: >
TGI, µM: 51.3
//
COMPOUND: CS(=O)(=O)Nc1cccc(-c2ccc3ncnc(Nc4ccc(F)c(Cl)c4)c3c2)c1
RELATION SYMBOL: =
TGI, µM: 8.53
//
COMPOUND: Cc1c2ccncc2c(C)c2c1[nH]c1ccc(OCCN(C)C)cc12
RELATION SYMBOL: =
TGI, µM: 0.543
//
COMPOUND: Cc1c([C@H](C)[C@@H]2NC[C@@H](C)C[C@H]2O)ccc2c1C[C@H]1[C@H]2CC=C2C[C@@H](O)CC[C@@]21C
RELATION SYMBOL: >
TGI, µM: 100
//
COMPOUND: C1CCCCc2nc3c(nc2CCC1)c1nc2c(nc1c1nc4c(nc31)CCCCCCCC4)CCCCCCCC2
RELATION SYMBOL: >
TGI, µM: 100
//
COMPOUND: NC(=O)c1ccc(Oc2nccc(-c3c(-c4ccc(F)cc4)ncn3C3CCNCC3)n2)cc1
RELATION SYMBOL: >
TGI, µM: 25
//
COMPOUND: NC1c2ccccc2Nc2ccccc21
RELATION SYMBOL: =
TGI, µM: 17.1
//
COMPOUND: O=C(OCc1ccccc1)N1CCNCCNCCN(C(=O)OCc2ccccc2)CCNCC1
RELATION SYMBOL: =
TGI, µM: 32.8
//
COMPOUND: CS(=O)(=O)c1ccc(Nc2nc(N[C@H]3CCCC[C@H]3N)nc3cc[nH]c(=O)c23)cc1
RELATION SYMBOL: =
TGI, µM: 20.3
//
COMPOUND: Cc1c(C(=O)O)n(C)c(=O)n(C)c1=O
RELATION SYMBOL: >
TGI, µM: 100
//
COMPOUND: S=C1SC(=Nc2ccccc2)C(=Nc2ccccc2)N1c1ccc2ccccc2c1
RELATION SYMBOL: >
TGI, µM: 100
//
COMPOUND: COc1ccc(-c2nc(-c3nc4ccc(C)cc4[nH]3)cc3c2[nH]c2ccccc23)cc1
RELATION SYMBOL: >
TGI, µM: 100
